The origin of these recorded values is ChEMBL document CHEMBL1156336.

- Test system: MOLT-4
- ASSAY_TEXT: Antitumor activity against human MOLT4 cells after 72 hrs by MTT assay
- ASSAY_CONDITIONS: MOLT-4, 72 h
pIC50: −log10 of the molar value.
Field: pIC50. Provide a value for each of the compounds that follow.

Provide measured pIC50 value, entry: O=c1[nH]c(CC(O)COCc2ccccc2)c(CCCl)c(=O)[nH]1 (stereo not drawn)
< 4.00

Provide measured pIC50 value, entry: COc1ccc(C(OCCc2c(C)nc(OC)nc2OC)(c2ccccc2)c2ccccc2)cc1
5.30

Provide measured pIC50 value, entry: Nc1ccn([C@@H]2O[C@H](CO)[C@@H](O)[C@@H]2O)c(=O)n1 [CYTARABINE]
6.00

Provide measured pIC50 value, entry: O=c1[nH]cc(F)c(=O)[nH]1 [FLUOROURACIL]
7.52

Provide measured pIC50 value, entry: CC(=O)OCCc1c(C)nc(Cl)nc1Cl
< 4.00

Provide measured pIC50 value, entry: Cc1[nH]c(=O)[nH]c(=O)c1CCO
< 4.00

Provide measured pIC50 value, entry: Cc1nc(Cl)nc(Cl)c1CCCl
5.30

Provide measured pIC50 value, entry: CC(=O)OCCc1c(C)[nH]c(=O)[nH]c1=O
< 4.00

Provide measured pIC50 value, entry: COc1nc(C)c(CCO)c(OC)n1
< 4.00

Provide measured pIC50 value, entry: COc1nc(Cl)nc(C)c1CCOC(C)=O
< 4.00

Provide measured pIC50 value, entry: COc1nc(C)c(CCCl)c(OC)n1
< 4.00

Provide measured pIC50 value, entry: COc1nc(CC(O)COCc2ccccc2)c(CCCl)c(OC)n1 (stereo not drawn)
4.72

Provide measured pIC50 value, entry: Cc1[nH]c(=O)[nH]c(=O)c1CCCl
< 4.00

====

Field: pIC50. Provide a value for each of the molecules that follow.
- System: MCF7
- ASSAY_TEXT: Antitumor activity against human MCF7 cells after 72 hrs by MTT assay
- ASSAY_CONDITIONS: MCF7, 72 h
pIC50: −log10 of the molar value.

Provide measured pIC50 value, entry: Cc1[nH]c(=O)[nH]c(=O)c1CCO
< 4.00

Provide measured pIC50 value, entry: COc1nc(Cl)nc(C)c1CCF
< 4.00

Provide measured pIC50 value, entry: COc1nc(C)c2c(n1)OCC2
< 4.00

Provide measured pIC50 value, entry: COc1nc(C)c(CCF)c(OC)n1
< 4.00

Provide measured pIC50 value, entry: O=c1[nH]c(CC(O)COCc2ccccc2)c(CCCl)c(=O)[nH]1 (configuration not stated)
< 4.00

Provide measured pIC50 value, entry: COc1nc(CC(O)COCc2ccccc2)c(CCCl)c(OC)n1 (configuration not stated)
4.59

Provide measured pIC50 value, entry: Nc1ccn([C@@H]2O[C@H](CO)[C@@H](O)[C@@H]2O)c(=O)n1
≤ 4.00

Provide measured pIC50 value, entry: COc1nc(Cl)nc(C)c1CCO
< 4.00

Provide measured pIC50 value, entry: COc1nc(C)c(CCCl)c(OC)n1
< 4.00

Provide measured pIC50 value, entry: COc1ccc(C(OCCc2c(C)nc(OC)nc2OC)(c2ccccc2)c2ccccc2)cc1
5.22

Provide measured pIC50 value, entry: COc1nc(Cl)nc(C)c1CCOC(C)=O
< 4.00

Provide measured pIC50 value, entry: CC(=O)OCCc1c(C)[nH]c(=O)[nH]c1=O
< 4.00

Provide measured pIC50 value, entry: Cc1[nH]c(=O)[nH]c(=O)c1CCCl
< 4.00

Provide measured pIC50 value, entry: Cc1nc(Cl)nc(Cl)c1CCCl
5.10

Provide measured pIC50 value, entry: COc1nc(C)c(CCOC(C)=O)c(OC)n1
4.19

Provide measured pIC50 value, entry: COc1nc(C)c(CCO)c(OC)n1
< 4.00

Provide measured pIC50 value, entry: CC(=O)OCCc1c(C)nc(Cl)nc1Cl
< 4.00
